# Tested on: Aspergillus niger
# assay_method_text: Antifungal activity against Aspergillus niger by disk diffusion method at 25 ug/disk
# Assay type: functional
# run_conditions: read-out: IZ
value_kind: zone of inhibition at 25 µg/disc

- smiles_structure: "COc1cc(Br)c(Cn2nnc3ccccc32)cc1OC"
  target_under_test: "Aspergillus niger"
  value_kind: "zone of inhibition at 25 µg/disc"
  measured_result: "9 mm"
- smiles_structure: "CCCCn1nnc2ccccc21"
  target_under_test: "Aspergillus niger"
  value_kind: "zone of inhibition at 25 µg/disc"
  measured_result: "8 mm"
- smiles_structure: "CCCn1nnc2ccccc21"
  target_under_test: "Aspergillus niger"
  value_kind: "zone of inhibition at 25 µg/disc"
  measured_result: "5 mm"
- smiles_structure: "O=C(Cn1nnc2ccccc21)c1ccc(Cl)cc1"
  target_under_test: "Aspergillus niger"
  value_kind: "zone of inhibition at 25 µg/disc"
  measured_result: "4 mm"
- smiles_structure: "Cc1cc2c(cc1Cn1nnc3ccccc31)OCO2"
  target_under_test: "Aspergillus niger"
  value_kind: "zone of inhibition at 25 µg/disc"
  measured_result: "16 mm"
- smiles_structure: "N#Cc1ccccc1-c1ccc(Cn2nnc3ccccc32)cc1"
  target_under_test: "Aspergillus niger"
  value_kind: "zone of inhibition at 25 µg/disc"
  measured_result: "14 mm"
- smiles_structure: "O=[N+]([O-])c1ccc(Cn2nnc3ccccc32)cc1"
  target_under_test: "Aspergillus niger"
  value_kind: "zone of inhibition at 25 µg/disc"
  measured_result: "5 mm"
